# System: BJeLR fibroblast viability, Alamar Blue fluorescence, 48 h
# Experimental details: BJeLR fibroblast growth inhibition, viability readout – cell-based, alamar blue fluorescence, 48 h, cherrypicked samples, dose response (AID 2610);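 also: BJ fibroblasts with hTERT plus SV40 large and small T and HRAS V12; EC50 for loss of viable cells so potency reflects cytotoxic compounds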
Inconclusive results are not listed. The source made the active and inactive calls.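 The calls were made as follows: active = EC50 no more than tenfold above the top concentration tested, with valid fit and all samples agreeing; inconclusive = flat fit at 30 to 70% inhibition, poor fit, or split samples; inactive = EC50 beyond tenfold the top concentration tested.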
Measure: EC50

{"Molecule": "Cc1cc(C)cc(NS(=O)(=O)c2ccc(-c3cnc(C4CC4)o3)cc2)c1", "EC50": "< 104 nM"}
{"Molecule": "O=C(Cc1ccc([N+](=O)[O-])cc1)N/N=C/c1ccc([N+](=O)[O-])o1", "EC50": "3540 nM"}
{"Molecule": "O=C(/C=C/c1ccc(F)cc1)NNC(=O)CCN1CCN(Cc2ccccc2)CC1", "EC50": "> 13300 nM (inactive)"}
{"Molecule": "CCn1cc(C(=O)NCc2ccco2)c(=O)c2cc(S(=O)(=O)N3CC(C)CC(C)C3)ccc21 (configuration not stated)", "EC50": "> 13300 nM (inactive)"}
{"Molecule": "O=C(COc1ccc([N+](=O)[O-])cc1)Nc1ccc(C(=O)NCc2cccnc2)cc1", "EC50": "> 13300 nM (inactive)"}

Request: Form field - read-out: EC50; system: BJeLR fibroblast viability, Alamar Blue fluorescence, 48 h; submitted item: `Cc1ccc(C(=O)Sc2cccccc2=O)cc1`
Result: < 62.4 nM

Request: Try the molecule `Clc1ccccc1Nc1nnc(-c2ccncc2)s1`
Result: > 13300 nM (inactive)

Request: Note, next up: `Cc1ccc(NC(=O)[C@H](Cc2c[nH]c3ccccc23)NC(=O)[C@@H]2Cc3ccccc3CN2)c(C)c1`
Result: > 13300 nM (inactive)

Request: What do you have for `c1ccc2nc(-c3nc4ccccc4o3)ccc2c1` ?
Result: > 13300 nM (inactive)

Request: Same question, Cc1ccc(C2CC(c3cccs3)=NN2C(=O)CCl)cc1 (configuration not stated) this time
Result: 727 nM

Request: Next molecule: `CCN(CC)c1ccc(/C=N/NC(=O)c2ccco2)c(O)c1`
Result: 804 nM

Request: Okay, and `Cc1nc(N)nc(N)c1/C=C/C(C)(C)c1ccc(Cl)cc1` ?
Result: > 13300 nM (inactive)

Request: # iterate: `O=C(CSc1ccccn1)NCc1ccc2c(c1)OCO2`
Result: > 13300 nM (inactive)

Request: Try `CCNC(=S)NNC(=O)c1cc(-c2ccc(OCC)cc2)nc2ccccc12` next.
Result: > 13300 nM (inactive)

Request: What do we get for COC(=O)C1CN(C#N)N(c2ccc(Cl)cc2)C12c1ccccc1-c1ccccc12 (configuration not stated) ?
Result: 567 nM

Request: What do you get for `CCCCCCCN(C(=O)CCl)c1cccc(C)c1` ?
Result: 429 nM

Request: Another molecule to look at: C[C@@H]1C[C@H]2OC(=O)C3(CO3)[C@H]2[C@H](O)[C@]2(C)C(=O)C3OC3[C@@H]12 (some centres not stated)
Result: 2830 nM

Request: Could you do the same for `CCCCOc1ccc(Br)cc1/C(C)=N/NC1=NCCN1` , please?
Result: 585 nM

====

# Test system: BJeLR fibroblast viability, Alamar Blue fluorescence, 48 h
# Experimental details: BJeLR fibroblast growth inhibition, viability readout – cell-based, alamar blue fluorescence, 48 h, cherrypicked samples, dose response (AID 2610);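 also: BJ fibroblasts with hTERT plus SV40 large and small T and HRAS V12; EC50 for loss of viable cells so potency reflects cytotoxic compounds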
Results filed as inconclusive are left out. The source made the active and inactive calls.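 The calls were made as follows: active = EC50 no more than tenfold above the top concentration tested, with valid fit and all samples agreeing; inconclusive = flat fit at 30 to 70% inhibition, poor fit, or split samples; inactive = EC50 beyond tenfold the top concentration tested.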
Field 'call' accepts active, inactive

Some solved entries appear below for comparison.
{"Compound": "Cc1sc2ncnc(N/N=C/c3ccccc3O)c2c1C", "Category label": "active"}
{"Compound": "Cc1ccc(/C=N/NC(=O)c2cc(-c3ccncc3)nc3ccccc23)o1", "Category label": "active"}
{"Compound": "COc1cc(NC(=O)c2cccs2)c(OC)cc1NC(=O)CCC(=O)Nc1ccc2ncccc2c1", "Category label": "inactive"}
{"Compound": "O=C1C=C(c2cccs2)C[C@H](c2ccccc2)[C@H]1n1nnc([N+](=O)[O-])n1", "Category label": "active"}

Request: Record lookup: outcome of this test for `c1ccc(-c2noc(-c3ccc4c(c3)OCO4)n2)nc1` ?
Result: inactive

Request: Further, for `Cc1ccc(C)c(NS(=O)(=O)c2ccc(-c3cnc(C4CC4)o3)cc2)c1` ?
Result: active
